Every entry's value here was drawn from patent US20230050440A1.

Biological target: T1, human TIGIT expressed on cells (human, UniProt Q495A1 22-244)
T1 construct: HEK 293 cells stably expressing human TIGIT, primary human T cells or Jurkat effector cells; the cell is named under assay; also called Human TIGIT HEK
T1 sequence: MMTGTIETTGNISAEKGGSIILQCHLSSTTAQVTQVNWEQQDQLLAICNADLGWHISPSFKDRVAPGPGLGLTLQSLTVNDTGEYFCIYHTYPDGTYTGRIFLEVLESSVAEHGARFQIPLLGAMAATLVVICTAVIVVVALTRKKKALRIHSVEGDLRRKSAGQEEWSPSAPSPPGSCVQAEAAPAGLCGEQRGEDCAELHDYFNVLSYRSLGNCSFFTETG
Assay: flow cytometry titration, HEK 293 cells expressing human TIGIT

[
  {
    "BINDER": "Clone 2 (antibody, V domains shown, Fully human IgG produced in yeast; also called anti-TIGIT antibody clone 2) VH: EVQLVESGGGLVQPGGSLRLSCAASGFTFSDHYMDWVRQAPGKGLEWVGRTRNKANSYTTEYAASVKGRFTISRDDSKNSLYLQMNSLKTEDTAVYYCARGQYYYGSSSRGYYYMDVWGQGTTVTVSS VL: EIVLTQSPGTLSLSPGERATLSCRASQSVSSSYLAWYQQKPGQAPRLLIYGASSRATGIPDRFSGSGSGTDFTLTISRLEPEDFAVYYCQQAVPSPLTFGGGTKVEIK",
    "EC50 (µg/mL)": 0.15
  }
]
